- target: T1, GPC3 on the surface of hepatic cancer cell lines (SK-Hep1-GPC3 transfectant, HepG2, Huh7, Hep3B, SNU398) (human, UniProt P51654 25-554)
- T1 construct: Species is not restated for the cells (hepatic cancer cell lines, or SK-Hep1 transfected with pCMV/GPC3); also called glypican 3
- method description: FACS, SK-Hep1-GPC3 cells, 1 ug antibody; lower right panel
Readings of Mean, FL2-H for the listed binders

Below: 3 binders and their reported Mean, FL2-H.
# binder, Mean, FL2-H
data = [
    ("clone GX207 (scFv, V domains shown, scFv library clone tested as culture supernatant) VH: EVQLVQSGAEVKKPGASVKVSCKASGYTFTSYGISWVRQAPGQGLEWMGWISAYNGNTNYAQKLQGRVTMTTDTSTSTAYMELRSLRSDDTAVYYCAREGIAAAGYYYGMDVWGQGTTVTVSS VL: QSALTQPPSVSGSPGQSVTISCTGTSSDVGGYNRVSWYQQPPGTAPKLMIYEVSNRPSGVPDRFSGSKSGNTASLTISGLQAEDEADYYCSSYTSSTTYVFGTGTKVTVLG", 9.91),
    ("clone GX090 (scFv, V domains shown, scFv library clone tested as culture supernatant) VH: QVQLVQSGAEVKKPGASVKVSCKASGYTFTSYGISWVRQAPGQGLEWMGWISAYNGNTNYAQKLQGRVTMTTDTSTSTAYMELRSLRSDDTAVYYCARGSSFSGFDPWGQGTLVTVSS VL: QSVLTQPPSLSAAPGQKVTISCSGSSSNIGKNHVSWYQQFPGTAPKFLIYDNHRRPSGIPDRFSGSKSGTSATLDITGLQTGDEATYYCGTWDSSLSAVVFGGGTKLTVLG", 10.2),
    ("clone GX248 (scFv, V domains shown, scFv library clone tested as culture supernatant) VH: QMQLVQSGAEVKKPGASVKVSCKASGGTFSSYAISWVRQAPGQGLEWMGGIIPIFGTANYAQKFQGRVTITADESTSTAYMELSSLRSEDTAVYYCARVRGTGPRGGTFDYWGQGTLVTVSS VL: QSVLTQPPSVSAAPGQKVTISCSGSSSNIGNNYVSWYQQLPGTAPKLLIYDNNKRPSGIPDRFSGSKSGTSATLGITGLQTGDEADYYCGTWDSSLSAWVFGGGTKLTVLG", 13.3),
]

Incoming: Which measured Mean, FL2-H value corresponds to clone GX225 (scFv, V domains shown, scFv library clone tested as culture supernatant) VH: QVQLVQSGAEVKKPGASVKVSCKASGYTFTSYYMHWVRQAPGQGLEWMGIINPSGGSTSYAQKFQGRVTMTRDTSTSTVYMELSSLRSEDTAVYYCARESGPSGGMDVWGQGTTVTVSS VL: SYELTQPPSVSVSPGQTARITCSGDALPKQYAYWYQQKPGQAPVLVIYKDSERPSGIPERFSGSSSGTTVTLTISGVQAEDEADYYCSSYTSSSTRVVFGGGTKLTVLG ?
Outgoing: 37.8

Incoming: // repeat for clone GX234 (scFv, V domains shown, scFv library clone tested as culture supernatant) VH: QVQLVQSGAEVKKPGASVKVSCKASGYTFTSYGISWVRQAPGQGLEWMGWISAYNGNTNYAQKLQGRVTMTTDTSTSTAYMELRSLRSDDTAVYYCARVGLGDFWSGDYYYYYYGMDVWGQGTTVTVSS VL: SSELTQDPAVSVALGQTVRITCQGDSLRSSYASWYHQKPGQAPVLVMYGKNNRPSGIPDRFSGSSSGNTASLTITGAQAEDEADYYCHSRDSTGSHPNWVFGGGTKLTVLG and report
Outgoing: 62.9
